assay: Cytotoxicity against Vero cells (resazurin); conditions: African green monkey, Vero cells (ATCC CRL-1586)

| Compound | IC50 at 72 h |
| --- | --- |
| CO[C@H]1/C=C/O[C@@]2(C)Oc3c(C)c(O)c4c(O)c(c(/C=N/N5CCN(C)CC5)c(O)c4c3C2=O)NC(=O)/C(C)=C\C=C\[C@H](C)[C@H](O)[C@@H](C)[C@@H](O)[C@@H](C)[C@H](OC(C)=O)[C@@H]1C [Rifampicin, reference compound] | > 100 µg/mL |
| OC/C=C/CCCCCCCO [Compound 2, (E)-2-decene-1,10-diol] | > 200 µg/mL |
| CC(=O)OC/C=C/CCCC/C=C/CO [Synthetic tsaokol A, tsaokol A] | > 200 µg/mL |
